- TESTED SYSTEM: FGFR kinase domain (Homo sapiens, UniProt P11362, C488A/C584S)
- Construct: FGFR kinase domain (amino acids 458-765, C488A, C584S) N-terminally fused to a His6-tag; made in house
- Sequence (P11362 458-765 C488A/C584S): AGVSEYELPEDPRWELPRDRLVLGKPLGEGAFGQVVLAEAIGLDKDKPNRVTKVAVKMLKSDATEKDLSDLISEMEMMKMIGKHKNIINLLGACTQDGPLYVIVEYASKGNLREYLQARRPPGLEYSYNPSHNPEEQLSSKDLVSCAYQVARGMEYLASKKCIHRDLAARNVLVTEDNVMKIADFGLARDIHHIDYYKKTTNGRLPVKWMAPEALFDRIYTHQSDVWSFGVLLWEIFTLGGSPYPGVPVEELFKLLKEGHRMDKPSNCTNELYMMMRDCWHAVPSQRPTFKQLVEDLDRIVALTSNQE
- PROTOCOL DESCRIPTION: Kinase assay (ELISA) for inhibition of FGFR activity
- Type: biochemical
- MEASUREMENT SETUP: Activity class
pIC50: −log10 of the molar value.
PROPERTY MEASURED: pIC50

// fetch pIC50; item: Cc1cc(Nc2ccnc(NCc3cc(C(N)=O)no3)n2)[nH]n1 [Example 4] ; system: FGFR kinase domain (Homo sapiens, UniProt P11362, C488A/C584S) 6.00 to 7.00

---

- TESTED SYSTEM: FGFR1 kinase (Homo sapiens, UniProt P11362)
- Sequence (P11362 22-822): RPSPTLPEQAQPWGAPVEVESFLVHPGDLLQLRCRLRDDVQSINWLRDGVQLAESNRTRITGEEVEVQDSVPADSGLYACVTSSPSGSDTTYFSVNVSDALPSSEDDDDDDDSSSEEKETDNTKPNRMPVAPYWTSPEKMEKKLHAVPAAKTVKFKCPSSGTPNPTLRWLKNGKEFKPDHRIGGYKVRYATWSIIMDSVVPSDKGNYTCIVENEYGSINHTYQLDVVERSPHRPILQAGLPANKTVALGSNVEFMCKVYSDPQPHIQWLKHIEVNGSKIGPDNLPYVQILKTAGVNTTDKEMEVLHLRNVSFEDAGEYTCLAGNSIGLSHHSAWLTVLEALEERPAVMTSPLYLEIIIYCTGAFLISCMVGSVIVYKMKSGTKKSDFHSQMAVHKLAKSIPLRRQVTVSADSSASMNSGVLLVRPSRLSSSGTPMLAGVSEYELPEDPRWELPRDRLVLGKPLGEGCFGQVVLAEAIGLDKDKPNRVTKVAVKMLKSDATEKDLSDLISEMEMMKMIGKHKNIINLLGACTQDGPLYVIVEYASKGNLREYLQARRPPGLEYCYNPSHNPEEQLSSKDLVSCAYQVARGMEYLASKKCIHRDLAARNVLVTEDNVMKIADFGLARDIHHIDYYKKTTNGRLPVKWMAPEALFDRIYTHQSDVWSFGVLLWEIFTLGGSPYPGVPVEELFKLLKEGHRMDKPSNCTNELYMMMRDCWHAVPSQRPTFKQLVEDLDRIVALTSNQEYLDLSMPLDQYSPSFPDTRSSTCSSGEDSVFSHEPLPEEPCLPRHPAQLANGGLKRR
- PROTOCOL DESCRIPTION: Kinase assay (using Caliper technology)
- Type: biochemical
- MEASUREMENT SETUP: FGFR1 kinase, Caliper; upper bound of bin; read-out: IC50
pIC50: −log10 of the molar value.
# pIC50 listing for each entry below

>>> result("Cc1cc(CNc2nccc(Nc3cc(CCc4cccc(N)c4)[nH]n3)n2)on1")
"> 6.70"
>>> result("Cc1cc(CNc2nccc(Nc3cc(CCc4cccc(OC(F)(F)F)c4)[nH]n3)n2)on1")
"> 5.00"
>>> result("c1ccc(OCc2cc(Nc3ccnc(NCc4cc(C5CC5)no4)n3)[nH]n2)cc1")
"> 5.00"
>>> result("COc1cncc(CCc2cc(Nc3ccnc(NCc4cc(C)no4)n3)n[nH]2)c1")
"> 6.00"

Quote pIC50 reported for COc1ccc(CCc2cc(Nc3ccnc(NCc4cc(C(N)=O)no4)n3)[nH]n2)cc1 please. > 6.00

Fill in pIC50 for record Cc1cc(CNc2nccc(Nc3cc(OCc4cccc(N5CCOCC5)c4)[nH]n3)n2)on1 > 5.00

Assign pIC50 to the following record: CC(C)Oc1cc(Nc2ccnc(NCc3cc(-c4ncccn4)no3)n2)n[nH]1 > 6.70

Entry CC(C)Oc1cc(Nc2ccnc(NCc3cc(C4CCOCC4)no3)n2)[nH]n1 needs its pIC50 filled in; supply it. > 5.00

---

- TESTED SYSTEM: human cytochrome P450 (CYP) 3A4 (Homo sapiens, UniProt P08684)
Entries and their pIC50
Scale for pIC50: -log10 of concentration given in mol/L; no unit attached.

These solved cases illustrate the format of a correct answer.
>>> quantitative_readout("Cc1cc(CNc2ncc(Cl)c(Nc3cc(C)[nH]n3)n2)on1")
5.36
>>> quantitative_readout("CCCc1cc(Nc2nc(NCc3cc(C)no3)ncc2Br)n[nH]1")
6.43
>>> quantitative_readout("Cc1cc(CNc2nccc(Nc3cc(C)[nH]n3)n2)on1")
5.24

Okay, now this molecule:
Please report the measured pIC50 for Cc1cc(Nc2nc(NCc3cc(C)no3)ncc2Br)[nH]n1 tested on human cytochrome P450 (CYP) 3A4 (Homo sapiens, UniProt P08684). 5.48

---

- TESTED SYSTEM: FGFR1 IIIc (Homo sapiens)
- Construct: host or cells: Cos-1
- PROTOCOL DESCRIPTION: Cell based inhibition of transiently expressed FGFR1 IIIc phosphorylation (Cos-1 cells)
- MEASUREMENT SETUP: Cos-1 cells, phospho-FGFR1; upper bound of bin; read-out: IC50
Where a name gives a salt, the structure may show the parent alone.
PROPERTY MEASURED: IC50

Consider the worked cases shown below.
>>> result("COc1cccc(CCc2cc(Nc3ccnc(NCc4cc(C)no4)n3)n[nH]2)c1")
"< 0.2 µM"
>>> result("Cc1cc(CNc2nccc(Nc3cc(CCc4cc(O)cc(O)c4)[nH]n3)n2)on1")
"< 10 µM"
>>> result("CNC(=O)c1cc(CNc2nccc(Nc3cc(CCc4cccc(OC)c4)n[nH]3)n2)on1")
"< 10 µM"

Answer with the recorded IC50 of Cc1cc(CNc2nccc(Nc3cc(OCc4cccc(F)c4)[nH]n3)n2)on1 [Example 94, hydrochloride] only. < 1 µM

Please give measured IC50 of the following entry: Cc1cccc(CCc2cc(Nc3ccnc(NCc4cc(C)no4)n3)n[nH]2)c1 [Example 52, hydrochloride] < 1 µM

Provide only the value of recorded IC50 for Cc1cc(CNc2nccc(Nc3cc(OCc4ccoc4)[nH]n3)n2)on1 < 10 µM

Name the recorded IC50 of the compound listed here: Cc1cc(CNc2nccc(Nc3cc(CCc4ccc(CN(C)C)o4)[nH]n3)n2)on1 < 30 µM

Report IC50, nothing else, for this compound: COc1ccc(CCc2cc(Nc3ccnc(NCc4cc(C)no4)n3)n[nH]2)cc1OC [Example 46, hydrochloride] < 10 µM
